# Assay system: T1, beta-catenin (full-length, Uniprot ID P35222) (Homo sapiens (Human), UniProt P35222 2-781)
# T1 construct: The FP protocol says 'full-length beta-Catenin (Uniprot ID P35222)'; also called bCat; B-Catenin
# T1 sequence: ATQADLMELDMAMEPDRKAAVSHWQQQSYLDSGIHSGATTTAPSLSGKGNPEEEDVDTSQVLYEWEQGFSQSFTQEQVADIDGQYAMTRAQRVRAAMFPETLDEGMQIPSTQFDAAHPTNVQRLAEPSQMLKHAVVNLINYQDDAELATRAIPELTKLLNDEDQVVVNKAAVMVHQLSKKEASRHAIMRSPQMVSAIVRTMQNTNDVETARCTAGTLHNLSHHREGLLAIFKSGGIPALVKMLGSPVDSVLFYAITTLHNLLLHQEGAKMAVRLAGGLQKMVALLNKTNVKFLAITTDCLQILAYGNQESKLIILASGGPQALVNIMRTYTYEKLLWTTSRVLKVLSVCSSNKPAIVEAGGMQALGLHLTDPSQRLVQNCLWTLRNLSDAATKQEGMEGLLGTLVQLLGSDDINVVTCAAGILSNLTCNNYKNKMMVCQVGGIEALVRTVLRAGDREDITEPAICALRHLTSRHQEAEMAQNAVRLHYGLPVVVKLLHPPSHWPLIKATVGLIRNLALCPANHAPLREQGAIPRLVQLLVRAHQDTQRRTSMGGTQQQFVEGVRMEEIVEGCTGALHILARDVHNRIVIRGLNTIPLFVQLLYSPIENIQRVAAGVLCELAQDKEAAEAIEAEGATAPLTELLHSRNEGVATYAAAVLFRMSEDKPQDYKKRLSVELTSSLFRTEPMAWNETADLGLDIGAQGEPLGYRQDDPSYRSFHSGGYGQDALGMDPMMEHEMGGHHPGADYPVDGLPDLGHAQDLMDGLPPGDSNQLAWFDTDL
# Assay remarks: fluorescence polarization competition vs 5FAM-TCF4(10-53) on full-length beta-catenin
Starred links: 1 amine or outer side, 2 acyl side, 3 side chain; linkers in the order of their positions; H or OH if unused. Positions of bridges follow the written chain, without caps; N, C: chain ends. Non-standard residues stand in square brackets, D forms with d. Primed or numbered codes have the meaning given here. B5(10) = 2-amino-2-(pent-4-en-1-yl)hept-6-enoic acid, bis(4-pentenyl)glycine, stitching residue bearing both staples, C=CCCCC(CCCC=C)(N[*:1])C(=O)[*:2]; B5(4) = 2,2-bis(4-pentenyl)glycine = 2-amino-2-(pent-4-en-1-yl)hept-6-enoic acid (stitching residue), C=CCCCC(CCCC=C)(N[*:1])C(=O)[*:2]; B5(21) = 2-amino-2-(pent-4-en-1-yl)hept-6-enoic acid, bis(4-pentenyl)glycine (stitching residue), C=CCCCC(CCCC=C)(N[*:1])C(=O)[*:2]; B5 = 2-amino-2-(pent-4-en-1-yl)hept-6-enoic acid, C=CCCCC(CCCC=C)(N[*:1])C(=O)[*:2]; S7 = C[C@@](CCCCCC=[*:3])(N[*:1])C(=O)[*:2]; 2Nal = N[C@@H](Cc1ccc2ccccc2c1)C(=O)O; αAllylPro = C=CC[C@@]1(C(=O)O)CCCN1; Aad = N[C@@H](CCCC(=O)O)C(=O)O; S8 = C=CCCCCCC[C@](C)(N)C(=O)O
Define the label as YES when IC50 is strictly less than 3000 nM and as NO in all remaining cases.

{"Binder": "Ac-[αAllylPro]DA[B5(4)]DEAAFV[S8]FWQ-NH2 (staple 1-4, 4-11, Stapled (stitched) peptide) [I-123: Ac-PL3-Asp-Ala-B5-Asp-Glu-Ala-Ala-Phe-Val-S8-Phe-Trp-Gln-NH2]", "Classification": "YES"}
{"Binder": "Ac-[αAllylPro]DA[B5]DEAAFV[S7]FWQ-NH2 (staple 1-4, 4-11, Stapled peptide) [I-132: Ac-PL3-Asp-Ala-B5-Asp-Glu-Ala-Ala-Phe-Val-S7-Phe-Trp-Gln-NH2]", "Classification": "NO"}
{"Binder": "Ac-[αAllylPro]DA[B5(21)]DEAAFV[S8]F[2Nal]Q-NH2 (staple 1-4, 4-11, Stapled peptide) [I-140: Ac-PL3-Asp-Ala-B5-Asp-Glu-Ala-Ala-Phe-Val-S8-Phe-2NapA-Gln-NH2]", "Classification": "YES"}
{"Binder": "Ac-[αAllylPro]DA[B5(10)]D[Aad]AAFV[S8]FWQ-NH2 (staple 1-4, 4-11, Stapled peptide) [I-129: Ac-PL3-Asp-Ala-B5-Asp-Aad-Ala-Ala-Phe-Val-S8-Phe-Trp-Gln-NH2]", "Classification": "YES"}

Just for reference, patent US20240116985A1 is where these values come from.
